Target: T1, Cynomolgus monkey Serum Albumin (Cynomolgus monkey, UniProt A2V9Z4 25-608)
T1 construct: mature; purified protein on CM5 chips for BIAcore; also called CSA; cyno SA
T1 sequence (A2V9Z4 25-608): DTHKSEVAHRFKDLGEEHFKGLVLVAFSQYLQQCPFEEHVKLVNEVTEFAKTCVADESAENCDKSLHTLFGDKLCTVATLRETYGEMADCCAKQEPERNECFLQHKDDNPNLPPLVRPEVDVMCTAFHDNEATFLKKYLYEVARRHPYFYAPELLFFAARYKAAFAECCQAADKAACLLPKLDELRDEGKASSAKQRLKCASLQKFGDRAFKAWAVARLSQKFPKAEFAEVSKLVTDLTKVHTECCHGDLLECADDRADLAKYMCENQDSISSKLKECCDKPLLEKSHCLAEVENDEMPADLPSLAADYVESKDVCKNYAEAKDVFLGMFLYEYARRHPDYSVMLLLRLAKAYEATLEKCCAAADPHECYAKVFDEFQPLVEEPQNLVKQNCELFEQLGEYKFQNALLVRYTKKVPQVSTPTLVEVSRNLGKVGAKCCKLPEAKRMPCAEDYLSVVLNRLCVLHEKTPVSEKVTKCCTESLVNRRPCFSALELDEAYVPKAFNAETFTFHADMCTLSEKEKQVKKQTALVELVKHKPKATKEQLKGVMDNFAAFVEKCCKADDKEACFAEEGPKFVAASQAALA
Assay: BIAcore SPR
Measured Parameter: pKd
Answers are plain numbers, as −log10 of the molar value.

>  <Binder>
DOM7h-11-57 (other, Vk dAb) VL: DIQMTQSPSSLSASVGDRVTITCRASRPIGTMLSWYQQKPGKAPKLLILAFSRLQSGVPSRFSGSGSGTDFTLTISNLQPEDFATYYCAQAGTHPTTFGQGTKVEIKW

>  <pKd>
8.21

$$$$

# return pKd for each item in the list
1. DOM7h-11-68 (other, Vk dAb) VL: DIQMTQSPSSLSASVGDRVTITCRASRPIGTMLSWYQQKPGEAPKLLILAFSRLQSGVPSRFSGSGSGTDFTLTISSLQPEDFATYYCAQTGTHPTTFGQGTKVEIKW
2. DOM7h-11-15 (other) VL: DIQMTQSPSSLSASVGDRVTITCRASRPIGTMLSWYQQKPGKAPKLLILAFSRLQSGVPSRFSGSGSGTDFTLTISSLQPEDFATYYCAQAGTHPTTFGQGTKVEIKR

1. 7.42
2. 8.28
